- Tested on: A549/ATCC NSCLC
- Assay Notes: NCI-60 one-dose screen, 48 h (100 = growth as untreated, 0 = no growth, -100 = all killed)
- Condition Context: 10 µM
This is part of a sample that, as a whole, favours compounds with a hit. Of some 83,000 tested, about 20% had one in any assay.
Metric: growth (%)

>>> observed("O=S(=O)(O)c1cccc(Nc2ccc3ccccc3c2)c1")
94.1
>>> observed("O=C(Nc1ccc2c(O)cc(S(=O)(=O)O)cc2c1)c1ccc([N+](=O)[O-])cc1")
79.3
>>> observed("O=C(CSc1nnc(-c2cccnc2SCc2ccccc2)o1)Nc1nc(Cl)cc(Cl)n1")
104
>>> observed("Cc1nn(-c2ccc(-c3ccc(OC(F)(F)F)cc3)cc2)c2nc(Cc3ccccc3)nc(N)c12")
16.7
>>> observed("COc1cc(C(=O)/C(C)=C/c2c[nH]c3ccccc23)cc(OC)c1OC")
11.6
>>> observed("O=C(CCc1nnc2sc(-c3cc(O)c(O)c(O)c3)nn12)c1nc2ccccc2[nH]1")
108
>>> observed("CNC(=O)c1cn2c3c(c(N4CCN(C)CC4)c(F)cc3c1=O)OC[C@@H]2C")
95.7
>>> observed("OC(CNc1ccnc2cc(Cl)ccc12)CNC1CCCCC1 (stereo not given)")
88.4
>>> observed("C[C@]12CCC3c4ccc(O)cc4C[C@@H](CCCCCCCCCS(=O)CCCC(F)(F)C(F)(F)F)C3C1CC[C@@H]2O (stereo not given in full)")
67.9
>>> observed("CC(CN(C)C)Oc1ccc(OC(C)CN(C)C)c2c1C(=O)c1ccccc1C2=O (stereo not given)")
22.5

----------
- Tested on: SK-MEL-28 melanoma
- Assay Notes: NCI-60 one-dose screen, 48 h (100 = growth as untreated, 0 = no growth, -100 = all killed)
- Condition Context: 10 µM
About 83,000 compounds went through this panel and 20% of them were active in at least one assay; those are over-represented in the sample as a whole.
Metric: growth (%)

>>> observed("O=[N+]([O-])c1cc(Cl)cc(Cl)c1O")
102
>>> observed("CCN(CC)CCN1c2nc3ccccc3cc2Sc2cc3ccccc3nc21")
-50.4
>>> observed("COc1ccc2nc3cc(Cl)ccc3c(NCCCNCCO)c2c1")
-49
>>> observed("COc1ccc(NC(=O)C2CC3C=CC2C3)c([N+](=O)[O-])c1 (stereo unspecified)")
98.1
>>> observed("Cc1ccc(-n2c(C)nn3c(=O)c4c5c(sc4nc23)CN(C)CC5)cc1")
106
>>> observed("Cc1cc(Cl)ccc1Nc1nc(C(F)(F)F)ccc1C(=O)N/N=C/c1cccc(O)c1")
52.4
>>> observed("CC(C)(C)OC(=O)N1CCc2c(sc3ncnc(N/N=C/c4ccccc4Br)c23)C1")
81.9
>>> observed("CC[C@@H](C(=O)[C@H](C)[C@H](O)[C@@H](C)[C@H]1O[C@H]([C@@H](CC)C(=O)O)CC[C@H]1C)C1O[C@]2(C=C[C@@H](O)[C@]3(CC[C@@](C)([C@H]4CC[C@](O)(CC)[C@H](C)O4)O3)O2)[C@H](C)C[C@@H]1C (stereo partly specified)")
-93
>>> observed("Cc1ccc(C(C)C)c(O)c1NC(=O)OC(C)C")
101
>>> observed("c1ccc2c(c1)Cc1ccccc1N2CCN1CCCCC1")
110
>>> observed("CCCN1CN2C(=O)N3CN(CCC)CN4C(=S)N(C1)C2C34 (stereo unspecified)")
93.4
>>> observed("Cc1ccc(C(=O)C2C(=O)C3CCC2C3)cc1 (stereo unspecified)")
99.6
>>> observed("Cc1[nH]c2ccccc2c1/C=N/Nc1ncnc2sc3c(c12)CCN(CC(=O)OC(C)(C)C)C3")
80.7
>>> observed("O=C1c2ccccc2C(=O)N1CCCCNc1ccccc1")
113
>>> observed("CN(C)CCOc1cccc(-c2nc3sccn3c2-c2ccnc(S(C)(=O)=O)n2)c1")
100
>>> observed("S=C(SSC(=S)N(c1ccccc1)c1ccccc1)N(c1ccccc1)c1ccccc1")
111
>>> observed("CN(C)c1ccc(/C=N/NC(=O)c2ccccc2Nc2cccc(C(F)(F)F)c2)cc1")
91.2
>>> observed("CC(=O)C1N=NCC1c1ccccc1 (stereo unspecified)")
112
>>> observed("CCOC(=O)CC(S(=O)(=O)c1ccccc1)S(=O)(=O)c1ccccc1")
109
>>> observed("COc1cc(CNC(=O)C2CSC3(C)c4ccccc4C(=O)N23)cc(OC)c1OC (stereo unspecified)")
103
>>> observed("Cc1n[nH]c(C)c1N=Nc1cccc2c1C(=O)c1ccccc1C2=O")
113

Cited source: PubChem BioAssay (NCI)
